Test system: MIA-PACA2 pancreatic cancer cell lines
Assay: Cell proliferation assay (CellTiter 96 AQueous One)
Assay type: cell-based
Conditions: Homo sapiens, MIA PaCa-2; at 30 μM, MIA-PACA2
Protocol: Cell lines: Tumor-derived pancreatic cancer cell lines MIA-PACA2 were purchased from ATCC and grown in complete DMEM-High Glucose medium supplemented with penicillin (100 U/mL), streptomycin (100 μg/mL), and 10% heat-inactivated FBS at 37° C. in a humidified incubator with 5% CO2. […]
inhibition at 30 µM: recorded values
READOUT: inhibition at 30 µM

MOLECULE: O=c1nc(-c2ccccn2)[nH]c2c1CCC2 [drawing 1498]
READING: 1 to 25%
//
MOLECULE: Oc1nc(-c2ccccn2)nc2c(-c3cc(F)ccc3OC(F)F)csc12 [drawing 1736]
READING: 76 to 100%
//
MOLECULE: O=C(Nc1nnc(-c2ccccn2)[nH]1)C1=NOC(c2ccccc2)C1 (stereo not drawn) [drawing 1455]
READING: 25 to 50%
//
MOLECULE: O=C(COCc1ccccc1Cl)Nc1nnc(-c2ccccn2)[nH]1 [drawing 1431]
READING: 76 to 100%
//
MOLECULE: O=C(c1csc2c(O)nc(-c3ccccn3)nc12)N1CCNC(Cc2ccccc2)C1 (stereo not drawn) [drawing 1671]
READING: 76 to 100%
//
MOLECULE: O=C(c1csc2c(O)nc(-c3ccccn3)nc12)N1CCc2ccccc2CC1 [drawing 1579]
READING: 76 to 100%
//
MOLECULE: CN(CCc1cccc(C#N)c1)C(=O)c1csc2nc(-c3ccccn3)nc(N3CCOCC3)c12 [drawing 1681]
READING: 76 to 100%
//
MOLECULE: O=C(c1csc2c(O)nc(-c3ccccn3)nc12)N1CCN(c2ccc(F)cc2F)CC1 [drawing 1653]
READING: 76 to 100%
//
MOLECULE: COC(=O)C(C)CN(Cc1cc(Br)ccc1[N+](=O)[O-])C1CC1 (stereo not drawn) [drawing 1534]
READING: 1 to 25%

----------
Target: KRas G12D/Q61H double mutant (Homo sapiens (Human), UniProt P01116, G12D/Q61H)
Sequence (P01116-2 other isoform, or with tags, fused parts or gaps G12D/Q61H): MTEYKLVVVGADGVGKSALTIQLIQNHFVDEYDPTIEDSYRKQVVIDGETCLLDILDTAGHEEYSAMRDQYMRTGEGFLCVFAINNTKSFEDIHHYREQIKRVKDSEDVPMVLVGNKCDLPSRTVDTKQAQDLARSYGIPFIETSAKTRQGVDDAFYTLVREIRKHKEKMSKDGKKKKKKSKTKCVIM
Test: Ras GTP binding domain inhibition assay (labeled GTP)
Conditions: at 20 μM; read-out: KRas G12D Q61H % Inh.
READOUT: inhibition at 20 µM

COMPOUND: Oc1nc(-c2ccccn2)nc2cc(-c3ccc(-c4ccccc4)cc3)sc12 [drawing 3877]
TARGET_ENTITY: KRas G12D/Q61H double mutant (Homo sapiens (Human), UniProt P01116, G12D/Q61H)
READING: 1 to 25%

COMPOUND: COc1nc(-c2cn(C)cn2)nc2sc(-c3ccncc3)c(-c3ccccc3)c12 [drawing 3849]
TARGET_ENTITY: KRas G12D/Q61H double mutant (Homo sapiens (Human), UniProt P01116, G12D/Q61H)
READING: 25 to 50%

COMPOUND: COc1cnc(-c2cnc[nH]2)nc1O [drawing 3834]
TARGET_ENTITY: KRas G12D/Q61H double mutant (Homo sapiens (Human), UniProt P01116, G12D/Q61H)
READING: 51 to 75%

COMPOUND: COc1cc(-c2csc3c(O)nc(-c4ccccn4)nc23)cnc1C(F)(F)F [drawing 3756]
TARGET_ENTITY: KRas G12D/Q61H double mutant (Homo sapiens (Human), UniProt P01116, G12D/Q61H)
READING: 51 to 75%

COMPOUND: COc1cnc(-c2ccccn2)nc1O [drawing 3787]
TARGET_ENTITY: KRas G12D/Q61H double mutant (Homo sapiens (Human), UniProt P01116, G12D/Q61H)
READING: 51 to 75%

COMPOUND: Oc1nc(-c2ccccn2)nc2c(CC3CCCNC3)csc12 (stereo not drawn) [drawing 3807]
TARGET_ENTITY: KRas G12D/Q61H double mutant (Homo sapiens (Human), UniProt P01116, G12D/Q61H)
READING: 25 to 50%

COMPOUND: COc1cnc(CN)[nH]c1=O [drawing 3690]
TARGET_ENTITY: KRas G12D/Q61H double mutant (Homo sapiens (Human), UniProt P01116, G12D/Q61H)
READING: 25 to 50%

COMPOUND: COc1cnc(CNC(=O)c2sc3c(O)nc(-c4ccccn4)nc3c2C)[nH]c1=O [drawing 3842]
TARGET_ENTITY: KRas G12D/Q61H double mutant (Homo sapiens (Human), UniProt P01116, G12D/Q61H)
READING: 1 to 25%

COMPOUND: O=C(NCCc1ccncn1)c1csc2nc(-c3ccccn3)nc(N3CCOCC3)c12 [drawing 3819]
TARGET_ENTITY: KRas G12D/Q61H double mutant (Homo sapiens (Human), UniProt P01116, G12D/Q61H)
READING: 25 to 50%
